- Test system: BT-549
- EXPERIMENTAL PROTOCOL: NCI tumour cell line growth inhibition, 48 h
The source made the active and inactive calls. Cut-off read from the data, not from the text of the source: active = GI50 up to about 1.1 µM and inactive = higher.
Form entry, call: pick from TRUE = active, FALSE = inactive

Fill in: this test's call for O=c1c2cc([N+](=O)[O-])ccc2oc2nc3n(c(=O)c12)CCCS3 is ___
FALSE

GET /call?item= O=C(c1ccccc1)c1ccc2[nH]c(-c3c(Cl)c(Cl)c(Cl)c(Cl)c3C(=O)Nc3ccco3)nc2c1 returns the recorded outcome of this test.
FALSE

In this assay, the call recorded for COc1ccc2nc3c(C)cc4ccccc4n3c2c1 was what?
FALSE

GET /call?item= CC(=O)O[C@H]1CC[C@H]2[C@@H]3CCC(C(C)=O)[C@H](C(=O)O)[C@H]3CC[C@]12C (some centres undefined) returns the recorded outcome of this test.
FALSE

Name the outcome recorded for Clc1cccc(/C=N/C23CC4CC(CC(C4)C2)C3)c1Cl in the assay.
FALSE

For CC(=O)NC1C(OCc2ccccc2)OC(CO)C(O)C1OC(C)C(=O)NC(C)C(=O)NC(CCC(=O)NCCCCNc1c2ccccc2nc2cccc([N+](=O)[O-])c12)C(N)=O (centres undefined) , what call appears in the results of this test?
TRUE

Identify the outcome logged in this assay for the compound shown: Cc1nn2c(C(=O)N/N=C/c3ccccc3O)c(C)nc2s1
FALSE

Answer briefly: the call reported for NC(=O)NC(=O)CCC(NS(=O)(=O)c1ccccc1)C(=O)NC(N)=O (centres undefined) in this assay.
FALSE

Recorded test outcome, item CC1(C)OCC2OC(n3cnc4c(N)nc(Cl)nc43)C(OS(C)(=O)=O)C2O1 (centres undefined)
FALSE

###

- Tested on: MDA-MB-435
- EXPERIMENTAL PROTOCOL: NCI tumour cell line growth inhibition, 48 h
The source made the active and inactive calls. Cut-off read from the data, not from the text of the source: active = GI50 up to about 1.1 µM and inactive = higher.
Give measured GI50 for each item. Keep answers brief.

Param readout = GI50; param system = MDA-MB-435; param query = Cc1[nH]c2ccccc2c1-c1cc(-c2cc(-c3c(C)[nH]c4ccccc34)nc(N)n2)nc(N)n1 ; response: value
> 100 µM (inactive)

# query: GI50 | item N=C(N)NC(=N)Nc1ccc(S(=O)(=O)O)cc1 | system: MDA-MB-435
> 100 µM (inactive)

Lab note: need GI50 with MDA-MB-435 for entry COc1cccc(NC(=O)CC(=O)NN)c1 , please look it up.
> 100 µM (inactive)

Could you share what GI50 was measured for COc1ccc(C2C3=CONC3CC3CCCCC32)cc1 (stereo not given) , tested on MDA-MB-435?
47.9 µM (inactive)

Record lookup: for MDA-MB-435, what GI50 belongs to Cc1[nH]c(-c2ccccc2)c2nc(N(C)C)oc(=O)c12 ?
> 100 µM (inactive)

Reported GI50 for MDA-MB-435, given Clc1cc(OCc2nn3c(Cc4ccccc4)nnc3s2)c(Cl)cc1OCc1nn2c(Cc3ccccc3)nnc2s1 ?
> 100 µM (inactive)

State its GI50 on MDA-MB-435: CN1CN(c2ccccc2)C2(CCN(CC(C)(c3ccc(F)cc3)C3OCCCO3)CC2)C1=O (stereo not given)
10.9 µM (inactive)

Hi! What's the reported GI50 for Cc1nc2ccc(Cl)cc2c2c1CCS2 on MDA-MB-435?
68.5 µM (inactive)

Notebook entry, MDA-MB-435 assay: GI50 of O=C1OC(CN2CCOCC2)CN1/N=C/c1ccc([N+](=O)[O-])o1 (stereo not given) = ?
18 µM (inactive)

Under MDA-MB-435: GI50 value of COC(=O)C1C(C(=O)OC)C2(OC(c3ccc(Cl)cc3)=CC2=O)C12OC(c1ccc(Cl)cc1)=CC2=O (stereo not given) ?
22.5 µM (inactive)

###

- Test system: SK-MEL-5
- EXPERIMENTAL PROTOCOL: NCI tumour cell line growth inhibition, 48 h
The source made the active and inactive calls. No stated cut-off is given here; in the data, active = GI50 up to about 1.1 µM and inactive = higher.
RECORDED ENDPOINT: GI50

Suppose we examine the compound N#CC1C(=O)NC(=O)C1=O (configuration not stated) ; what GI50 value has been reported?
> 100 µM (inactive)

Which measured GI50 value corresponds to N=C(N)N/N=C/c1c(-c2ccc(N)cc2)nc2sccn12 ?
> 100 µM (inactive)

GI50 for C=CCn1c2ccccc2[n+]2cc([N+](=O)[O-])ccc12 ?
22 µM (inactive)

Query: GI50; subject: Cc1cc2sc(C)[n+](CCCOS(=O)(=O)[O-])c2cc1C
> 100 µM (inactive)

Which measured GI50 value corresponds to CO[C@@H]1C=C[C@@]23c4cc5c(cc4C(O)N(CC2O)C3C1)OCO5 (some centres not stated) ?
2.01 µM (inactive)

Which GI50 is listed for CC(=O)CC(=O)Nn1c(-c2cccs2)nc2ccc(I)cc2c1=O ?
> 41.6 µM (inactive)

// lookup GI50 for CCOC(=O)NC(Nc1ccc(C)cc1)(C(F)(F)F)C(F)(F)F
> 100 µM (inactive)

Any idea what GI50 was measured for COC(=O)c1cnn2c1n[n+]([O-])c1ccccc12 ?
26.9 µM (inactive)

For the compound shown here, Nc1nnnn1NC(=O)NCCCl , give the reported GI50.
> 10 µM (inactive)

May I ask what GI50 has been recorded for O=C(N/N=C/c1ccco1)c1cc(I)cc(I)c1O ?
12.4 µM (inactive)

So what's the measured GI50 for this one? C[N+](C)(C)CC1CCCc2ccccc2C1=O (configuration not stated)
6.59 µM (inactive)

Reported GI50 for O=C1OCOC2(CCCC2)C1c1ccccc1 (configuration not stated) : what is it?
> 100 µM (inactive)

###

- Test system: DMS-273
- EXPERIMENTAL PROTOCOL: NCI tumour cell line growth inhibition, 48 h
Activity calls are given as the source filed them. No stated cut-off is given here; in the data, active = GI50 up to about 1.1 µM and inactive = higher.
RECORDED ENDPOINT: GI50

Give recorded GI50 with DMS-273 for the following compound: c1ccc(P(=C2c3ccccc3-c3ccccc32)(c2ccccc2)c2ccccc2)cc1
5.04 µM (inactive)

Value wanted: GI50 (DMS-273) of entry O=C1c2ccccc2C(=O)N1C/C=N/NS(=O)(=O)c1ccc(Br)cc1
> 100 µM (inactive)

# value lookup — system DMS-273, readout GI50, item c1cnc2c3[nH]cc4[nH]c5ccccc5c4c-3nc2c1
72.9 µM (inactive)

Any idea what GI50 came out for COC(=O)C1=C(C)C(=O)C2(CCCCCC2C(=O)OC)C1 (centres undefined) on DMS-273?
> 100 µM (inactive)

GI50 of O=C(Cc1nc2ccccc2s1)Nc1cccc(C(F)(F)F)c1 on DMS-273?
18.7 µM (inactive)

Short answer please: GI50, DMS-273, entry COC(=O)[C@@]12OC[C@]34C([C@@H](O)C1O)[C@@]1(C)CC(=O)C(O)=C(C)C1C[C@H]3OC(=O)[C@H](OC(=O)CC(C)C(F)(F)F)[C@H]42 (some centres undefined)
0.00693 µM (active)

Please state recorded GI50 (tested on DMS-273) of CCOC(=O)[C@@]12C(C)=CC(=O)O[C@]1(C)C1C(=O)NC(=O)C12 (some centres undefined)
> 100 µM (inactive)

So what GI50 did CCCCC(=O)OC[n+]1ccc2c(C)c3[nH]c4ccc(OC)cc4c3c(C)c2c1 get with DMS-273?
0.103 µM (active)

Under DMS-273: GI50 value of O=C(c1ccccc1)c1ccc2cccc(O)c2n1 ?
28.4 µM (inactive)

DMS-273 / GI50 / CC(=O)OC1CCn2nnc(CO)c21 (centres undefined) : value?
> 100 µM (inactive)

Reported GI50 for DMS-273, given CCOc1ccc(/C=N\N2C(=O)c3ccccc3C2=O)cc1 ?
> 100 µM (inactive)

Lab request: please report GI50 under test system DMS-273 for Cc1cccc(-c2nc3c(C(=O)NCCN(C)C)cccc3[nH]2)c1
0.411 µM (active)

Please state recorded GI50 (tested on DMS-273) of CN(C)/C=N\c1nc(=O)n(C2CCC(CO)O2)cc1F (centres undefined)
> 100 µM (inactive)

So what GI50 did O/N=C/c1ccc(O)c(O)c1 get with DMS-273?
62.5 µM (inactive)

Report GI50 for CCN(CC)CCCNc1ccc2nc(C)n3c4ccc(O)cc4c(=O)c1c23 tested on DMS-273.
0.619 µM (active)

Which measured GI50 belongs to O=CN/C=C/c1ccc(O)c(O)c1 , tested on DMS-273?
> 100 µM (inactive)

# value lookup — system DMS-273, readout GI50, item CCOC(=O)c1sc2c(C(=O)OCC)n3ccccc3c2c1N
53.6 µM (inactive)

What GI50 appears in the records for this compound with DMS-273? O=[N+]([O-])c1ccccc1C1N2CCCCC2[C@@H]2c3[nH]c4ccccc4c3CCN12 (some centres undefined)
10.9 µM (inactive)

// fetch DMS-273 GI50 for COc1cc(O)c(C(=O)/C=C/c2ccc(OC)c(OCc3ccccc3)c2)c(OC)c1
0.175 µM (active)

Please tell me: GI50 of O=C(/C=C(\O)C(=O)O)/C=C(\O)c1ccccc1 , system DMS-273?
> 4.65 µM (inactive)

# value lookup — system DMS-273, readout GI50, item N#CC1C(=O)NC(=O)C1=O (centres undefined)
> 100 µM (inactive)

Given the entry Nc1c(S(=O)(=O)O)cc(S(=O)(=O)O)c2ccc(/N=N/c3ccc(/C=C/c4ccc(/N=N/c5ccc6c(S(=O)(=O)O)cc(S(=O)(=O)O)c(N)c6c5O)cc4S(=O)(=O)O)c(S(=O)(=O)O)c3)c(O)c12 , what GI50 was observed with DMS-273?
> 100 µM (inactive)

What measured GI50 is associated with CCCCN/C(=N/C#N)NCc1ccccc1 on DMS-273?
> 100 µM (inactive)

Entry C=CC(=O)c1ccc2c(c1)OCCOCCOCCOCCOCCO2 , system DMS-273: what GI50 was measured?
15.7 µM (inactive)

# value lookup — system DMS-273, readout GI50, item CCOC(=O)c1ccc(/C(C)=N/NC(N)=S)cc1
> 100 µM (inactive)

Give DMS-273 GI50 for CN(C)CC/C(=N\Nc1c(Cl)cccc1Cl)c1ccccc1
16.8 µM (inactive)

What measured GI50 is associated with N/C(=N\O)N/N=C/c1ncccc1O on DMS-273?
7.28 µM (inactive)

Fill in the recorded GI50 for this compound, with DMS-273 as test system: Cc1[nH]c2ccccc2c1/C=C/c1c(C)[nH]c2ccccc12
> 100 µM (inactive)

Lookup: GI50 / DMS-273 / CC(=O)c1ccc(NC(=O)/C(Cc2ccccn2)=N/NC(=O)C[N+](C)(C)C)cc1
> 100 µM (inactive)

Can you look up GI50 on DMS-273 for CCOC(=O)CCc1c(C)c2c(O)cc(O)cc2oc1=O ?
> 100 µM (inactive)

Which measured GI50 belongs to COC(=O)CCC(=O)C(C#N)c1ccc(Cl)cc1Cl (centres undefined) , tested on DMS-273?
> 100 µM (inactive)

DMS-273 / GI50 / CCc1cccc(C(C)C)c1NC(=O)/C(=N\NC(N)=O)C(C(=O)OC)c1cnc2ccccc2n1 (centres undefined) : value?
31.6 µM (inactive)

GET /values?readout=GI50&system=DMS-273&item= CCOC(=O)Cn1c(=O)[nH]c(=O)c2[nH]cnc21
> 100 µM (inactive)

Observed GI50 on DMS-273 for CC#Cc1c(O)c2c(c(O)c1C#CC)C(=O)c1ccccc1C2=O , please.
> 100 µM (inactive)

The measured values listed here are drawn from ChEMBL document CHEMBL1201862.
